target: rat collagen, acid soluble, type I, rat tail (Upstate 08-115) (rat) (UniProt P02454); experiment: dried collagen assay
Sequence (P02454 152-1207, chain 1 of 2): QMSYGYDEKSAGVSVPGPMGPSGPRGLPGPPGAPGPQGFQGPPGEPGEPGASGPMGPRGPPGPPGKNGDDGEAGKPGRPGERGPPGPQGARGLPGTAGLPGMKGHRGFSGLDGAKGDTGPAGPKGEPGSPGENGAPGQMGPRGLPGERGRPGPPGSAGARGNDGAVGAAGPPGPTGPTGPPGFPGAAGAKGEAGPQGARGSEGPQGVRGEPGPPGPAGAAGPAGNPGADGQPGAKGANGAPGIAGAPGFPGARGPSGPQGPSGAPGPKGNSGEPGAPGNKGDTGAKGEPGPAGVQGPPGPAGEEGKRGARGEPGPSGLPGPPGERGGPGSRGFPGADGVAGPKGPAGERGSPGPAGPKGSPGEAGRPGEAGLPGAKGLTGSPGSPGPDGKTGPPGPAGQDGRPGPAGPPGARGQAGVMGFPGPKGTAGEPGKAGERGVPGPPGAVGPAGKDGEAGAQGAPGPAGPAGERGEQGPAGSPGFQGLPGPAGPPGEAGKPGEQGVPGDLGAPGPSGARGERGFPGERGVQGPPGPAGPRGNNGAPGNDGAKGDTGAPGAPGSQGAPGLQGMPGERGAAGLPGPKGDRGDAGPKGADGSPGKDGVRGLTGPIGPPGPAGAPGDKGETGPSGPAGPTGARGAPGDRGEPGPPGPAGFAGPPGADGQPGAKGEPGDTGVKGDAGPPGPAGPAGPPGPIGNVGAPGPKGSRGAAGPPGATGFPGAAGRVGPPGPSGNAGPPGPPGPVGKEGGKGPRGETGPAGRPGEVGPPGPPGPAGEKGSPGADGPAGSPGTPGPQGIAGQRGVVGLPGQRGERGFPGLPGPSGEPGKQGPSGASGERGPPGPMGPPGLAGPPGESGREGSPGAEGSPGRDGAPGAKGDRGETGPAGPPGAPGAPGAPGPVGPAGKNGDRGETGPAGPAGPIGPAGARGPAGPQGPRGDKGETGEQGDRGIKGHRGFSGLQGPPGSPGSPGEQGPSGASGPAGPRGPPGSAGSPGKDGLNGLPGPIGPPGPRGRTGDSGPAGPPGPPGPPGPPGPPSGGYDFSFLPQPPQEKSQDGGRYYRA
Sequence (P02466 86-1125, chain 2 of 2, further chain): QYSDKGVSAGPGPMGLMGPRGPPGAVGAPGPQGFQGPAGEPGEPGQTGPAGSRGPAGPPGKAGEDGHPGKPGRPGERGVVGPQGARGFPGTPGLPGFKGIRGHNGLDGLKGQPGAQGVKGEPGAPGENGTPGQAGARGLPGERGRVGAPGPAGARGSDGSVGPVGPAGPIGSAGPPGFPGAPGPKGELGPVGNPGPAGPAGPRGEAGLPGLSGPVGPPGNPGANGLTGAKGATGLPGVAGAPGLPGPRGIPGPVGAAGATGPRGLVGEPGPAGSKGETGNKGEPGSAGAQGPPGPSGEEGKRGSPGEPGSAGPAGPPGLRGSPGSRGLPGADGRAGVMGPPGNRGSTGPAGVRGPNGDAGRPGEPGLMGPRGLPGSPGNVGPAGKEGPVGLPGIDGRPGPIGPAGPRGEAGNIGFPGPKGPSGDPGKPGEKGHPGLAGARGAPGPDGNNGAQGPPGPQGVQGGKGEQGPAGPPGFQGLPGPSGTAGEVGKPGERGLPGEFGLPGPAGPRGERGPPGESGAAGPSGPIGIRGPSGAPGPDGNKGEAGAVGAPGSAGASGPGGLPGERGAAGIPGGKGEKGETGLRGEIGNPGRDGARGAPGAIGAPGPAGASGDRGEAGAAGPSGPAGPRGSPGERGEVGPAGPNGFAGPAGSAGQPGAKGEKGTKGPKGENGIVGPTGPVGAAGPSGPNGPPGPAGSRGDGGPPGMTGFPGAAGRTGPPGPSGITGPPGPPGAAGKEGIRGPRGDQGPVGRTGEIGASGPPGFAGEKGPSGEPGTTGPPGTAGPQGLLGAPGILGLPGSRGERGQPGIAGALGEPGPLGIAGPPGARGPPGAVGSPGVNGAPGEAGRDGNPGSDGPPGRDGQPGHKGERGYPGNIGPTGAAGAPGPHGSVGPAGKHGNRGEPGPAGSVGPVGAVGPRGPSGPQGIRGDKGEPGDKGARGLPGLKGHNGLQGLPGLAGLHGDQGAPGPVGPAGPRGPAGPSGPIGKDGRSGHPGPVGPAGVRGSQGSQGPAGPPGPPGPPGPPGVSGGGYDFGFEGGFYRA
Bridge positions count the residues as written; N and C are the ends. Square brackets hold non-standard residues; d marks the D form. Primed or numbered codes have the meaning given here. Side chains are listed from the residue outwards. Ends that are not written are not given here. * marks the point of attachment. Gd^T″ = GdDTPA-thiourea; Cbz = O=C(OCc1ccccc1)*
metric: % bound (%)

Sample records with % bound:
{Gd^T″}-GQWHCTTRFPHH[dF]CLYG (disulfide 5-14 (inferred); not fully specified (C-terminus)) [Compound ID 901] ... 2
Q[dW]TCSGDEYTWHCNYE (disulfide 4-13 (inferred); not fully specified (N-terminus, C-terminus); printed as QwTCSGDEYTWHCNYE) [SEQ ID NO 165] ... 4
Cbz-GQWHCTK(Gd^T″)RFPHHYCLYG (disulfide 5-14 (inferred)) [Compound ID 940] ... 8

P = {Gd^T″}-GK([Gly-Gd^T″])WHCTTLFPHHVCLYG (disulfide 5-14 (inferred)) [Compound ID 966]
Q = {Gd^T″}-GQWTCSGDEYTWACNYE (disulfide 5-14 (inferred); not fully specified (C-terminus)) [Compound ID 833]
Given the listed items, does P or Q have the lesser reported % bound? Mark your answer with the label of the selected entry.
Q
